- Test summary: chemical genetic growth profiling, strain panel (AID 1159580);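 further: tested at 20 µM; growth read once vehicle control cultures reached saturation at 30 °C; 1 = growth at the plate median or of vehicle wells; lower values mean less growth of the strain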
- Test context: S. cerevisiae deletion strains, growth OD, locus YKL068W, active compounds read low
Screen size: about 5,500 compounds; about 2,000 (36%) were called active. About 18% were inconclusive and are not listed. Some of the results follow.
The following molecules are listed with their measured normalized growth values.
Value kind: normalized growth

[[record]]
structure_notation = "COC(=O)[C@]1(C)CC[C@]2(C)CC[C@]3(C)C4=CC=C5C(=CC(=O)C(O)=C5C)[C@]4(C)CC[C@@]3(C)[C@@H]2C1"
value_kind = "normalized growth"
observed = 0.961

[[record]]
structure_notation = "COc1ccc(C(=O)O)c(O)c1OC"
value_kind = "normalized growth"
observed = 0.989

[[record]]
structure_notation = "CC1=C(O)C(=O)C=C2C1=CC=C1[C@@]2(C)CC[C@@]2(C)[C@@H]3C[C@](C)(C(=O)O)CC[C@]3(C)CC[C@]12C"
value_kind = "normalized growth"
observed = 0.895

[[record]]
structure_notation = "COc1ccc(C(=O)c2ccc(O)cc2)c(O)c1O"
value_kind = "normalized growth"
observed = 0.991


###

- Test summary: chemical genetic growth profiling, strain panel (AID 1159580)
- Test context: S. cerevisiae deletion strains, growth OD, locus YIL073C, strain SPO22, active compounds read low
Screen size: about 5,500 compounds; about 2,000 (36%) were called active. Not shown: some 18% with an inconclusive outcome. Some of the results follow.
Value kind: normalized growth

[[record]]
compound = "C#CC1(O)CCC2C3CCC4=CC(=O)CCC4(C)C3CCC21C (stereo not given)"
value_kind = "normalized growth"
observed = 0.933

[[record]]
compound = "CN[C@@H]1[C@@H](O[C@H]2O[C@H](CO)[C@@H](N)[C@H](O)[C@H]2O)O[C@H]2C[C@@H](N)[C@H](O[C@H]3[C@H](O)[C@@H](O)[C@H](N)C[C@@H]3N)O[C@@H]2[C@@H]1O"
value_kind = "normalized growth"
observed = 1.04

[[record]]
compound = "CC(=O)OCC(=O)[C@@]12OC3(CCCC3)O[C@@H]1CC1C3CCC4=CC(=O)C=C[C@]4(C)[C@@]3(F)[C@@H](O)C[C@@]12C (stereo not given in full)"
value_kind = "normalized growth"
observed = 0.966

[[record]]
compound = "c1ccc([C@H]2CN3CCSC3=N2)cc1"
value_kind = "normalized growth"
observed = 1.05

[[record]]
compound = "COc1cc2c(cc1OC)[C@@H]1C(=O)c3ccc4c(c3O[C@@H]1CO2)CC(C(C)C)O4 (stereo not given in full)"
value_kind = "normalized growth"
observed = 1.03

[[record]]
compound = "NC[C@H]1O[C@H](O[C@H]2C(O[C@@H]3O[C@H](CO)[C@@H](O)[C@H]3O)[C@@H](O)[C@H](N)C[C@@H]2N)[C@H](N)[C@@H](O)[C@@H]1O (stereo not given in full)"
value_kind = "normalized growth"
observed = 1.01

[[record]]
compound = "CC(=O)OCC(=O)[C@@]1(O)CCC2C3CC[C@@H]4C[C@H](OC(C)=O)CC[C@]4(C)C3C(=O)C[C@@]21C (stereo not given in full)"
value_kind = "normalized growth"
observed = 1.05

[[record]]
compound = "CC(=O)O[C@H]1CC[C@]2(C)C3CC[C@@]4(C)C(CC5O[C@@]6(CCC(C)CO6)[C@@H](C)C54)C3CC[C@H]2C1 (stereo not given in full)"
value_kind = "normalized growth"
observed = 0.985

[[record]]
compound = "NC[C@H]1O[C@H](O[C@H]2[C@H](O)[C@@H](O[C@H]3O[C@H](CO)[C@@H](O)[C@H](N)[C@H]3O)[C@H](N)C[C@@H]2N)[C@H](N)C[C@@H]1O"
value_kind = "normalized growth"
observed = 1.05

[[record]]
compound = "CCOc1ccc(NC(C)=O)cc1"
value_kind = "normalized growth"
observed = 0.916


###

- Test summary: chemical genetic growth profiling, strain panel (AID 1159580)
- Test context: S. cerevisiae deletion strains, growth OD, locus YAL013W, strain DEP1, active compounds read low
The campaign covered roughly 5,500 compounds. About 2,000 (36%) were called active. Another 18% or so got no clear call; they are omitted. The list shows a part of the results.
Value kind: normalized growth

[[record]]
compound = "N#Cc1sccc1Br"
value_kind = "normalized growth"
observed = 0.995

[[record]]
compound = "O=C(O)CC1CCCc2ccccc2C1O (stereo not drawn)"
value_kind = "normalized growth"
observed = 1.01

[[record]]
compound = "NS(=O)(=O)c1ccc(-n2ncc3ccccc3c2=O)cc1"
value_kind = "normalized growth"
observed = 1.02

[[record]]
compound = "CN1CCN(CCC=C2c3ccccc3Sc3ccc(S(=O)(=O)N(C)C)cc32)CC1"
value_kind = "normalized growth"
observed = 1.01

[[record]]
compound = "CCOC(=O)c1cnc2nc(SC)nn2c1N"
value_kind = "normalized growth"
observed = 0.997

[[record]]
compound = "NC[C@H]1O[C@H](O[C@H]2C(O[C@@H]3O[C@H](CO)[C@@H](O)[C@H]3O)[C@@H](O)[C@H](N)C[C@@H]2N)[C@H](N)[C@@H](O)[C@@H]1O (stereo partly drawn)"
value_kind = "normalized growth"
observed = 1

[[record]]
compound = "CC(=O)Nc1cc2ccccc2oc1=O"
value_kind = "normalized growth"
observed = 1

[[record]]
compound = "CC(=O)NC(=O)/C(C#N)=C/N1CCN(Cc2ccccc2)CC1"
value_kind = "normalized growth"
observed = 0.987

[[record]]
compound = "CN[C@@H]1[C@@H](O[C@H]2O[C@H](CO)[C@@H](N)[C@H](O)[C@H]2O)O[C@H]2C[C@@H](N)[C@H](O[C@H]3[C@H](O)[C@@H](O)[C@H](N)C[C@@H]3N)O[C@@H]2[C@@H]1O"
value_kind = "normalized growth"
observed = 1.01

[[record]]
compound = "COc1cc2c(cc1OC)[C@@]13CCN4CC5=CCOC6CC(=O)N2C1[C@H]6[C@H]5C[C@H]43 (stereo partly drawn)"
value_kind = "normalized growth"
observed = 1.02

[[record]]
compound = "CC(=O)c1cc2ccccc2oc1=O"
value_kind = "normalized growth"
observed = 1.02

[[record]]
compound = "OC(CSc1ccccc1)CN1CCN(c2ccc(C(F)(F)F)cn2)CC1 (stereo not drawn)"
value_kind = "normalized growth"
observed = 1.01

[[record]]
compound = "O=C(Nc1cccnc1)c1cccc(Cl)c1Cl"
value_kind = "normalized growth"
observed = 0.977


###

- Test summary: chemical genetic growth profiling, strain panel (AID 1159580);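 further: tested at 20 µM; growth read once vehicle control cultures reached saturation at 30 °C; 1 = growth at the plate median or of vehicle wells; lower values mean less growth of the strain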
- Test context: S. cerevisiae deletion strains, growth OD, locus YML032C, strain rad52, active compounds read low
Screen size: about 5,500 compounds; about 2,000 (36%) were called active. Not shown: some 18% with an inconclusive outcome. The list shows a part of the results.
Value kind: normalized growth

[[record]]
compound = "CCOc1cccc(C(=O)c2ccc(O)c(O)c2O)c1"
value_kind = "normalized growth"
observed = 0.942

[[record]]
compound = "CCc1cccc2c3c([nH]c12)C(CC)(CC(=O)O)OCC3 (stereo not drawn)"
value_kind = "normalized growth"
observed = 1.01

[[record]]
compound = "CN[C@@H]1[C@@H](O[C@H]2O[C@H](CO)[C@@H](N)[C@H](O)[C@H]2O)O[C@H]2C[C@@H](N)[C@H](O[C@H]3[C@H](O)[C@@H](O)[C@H](N)C[C@@H]3N)O[C@@H]2[C@@H]1O"
value_kind = "normalized growth"
observed = 1.01


###

- Test summary: chemical genetic growth profiling, strain panel (AID 1159580);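 further: tested at 20 µM; growth read once vehicle control cultures reached saturation at 30 °C; 1 = growth at the plate median or of vehicle wells; lower values mean less growth of the strain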
- Test context: S. cerevisiae deletion strains, growth OD, locus YOR001W, strain rrp6, active compounds read low
Out of some 5,500 compounds screened, about 2,000 (36%) were called active. Another 18% or so got no clear call; they are omitted. The list shows a part of the results.
Value kind: normalized growth

[[record]]
molecule = "CN1CCN(CCC=C2c3ccccc3Sc3ccc(S(=O)(=O)N(C)C)cc32)CC1"
observed = 0.977

[[record]]
molecule = "C=C(C)[C@@H]1CC[C@]2(CO)CC[C@]3(C)[C@H](CCC4[C@@]5(C)CC[C@H](O)C(C)(C)C5CC[C@]43C)C12 (some centres undefined)"
observed = 0.98

[[record]]
molecule = "CN[C@@H]1[C@@H](O[C@H]2O[C@H](CO)[C@@H](N)[C@H](O)[C@H]2O)O[C@H]2C[C@@H](N)[C@H](O[C@H]3[C@H](O)[C@@H](O)[C@H](N)C[C@@H]3N)O[C@@H]2[C@@H]1O"
observed = 1

[[record]]
molecule = "CC(=O)Oc1ccccc1C(=O)O"
observed = 1.02


###

- Test summary: chemical genetic growth profiling, strain panel (AID 1159580);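 further: tested at 20 µM; growth read once vehicle control cultures reached saturation at 30 °C; 1 = growth at the plate median or of vehicle wells; lower values mean less growth of the strain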
- Test context: S. cerevisiae deletion strains, growth OD, locus YPL031C, strain PHO85
In all, about 5,500 compounds went through this assay and about 2,000 (36%) were called active. Inconclusive results (about 18%) are left out. Rule as the data show it: active = normalized growth mostly below about 0.91 (no sharp cut-off); inconclusive = no clear call, values can overlap the other calls; inactive = mostly above about 0.92. Some of the results follow.
Outcomes: label 1 for active, label 0 for inactive

[[record]]
structure_notation = "Cc1ccc(OCc2n[nH]c(=S)n2Cc2ccccc2)c2c1CCC2"
class_label = "label 0"

[[record]]
structure_notation = "FC(F)(F)c1cc(-c2ccc(Cl)cc2)n[nH]1"
class_label = "label 0"

[[record]]
structure_notation = "O=C(Nc1cccnc1)c1cc2c(s1)-c1ccccc1CC2"
class_label = "label 1"

[[record]]
structure_notation = "N#C/C(=N/Nc1cccc(C(F)(F)F)c1)C(=O)c1csc(-c2cccnc2)n1"
class_label = "label 1"

